Data origin: PubChem BioAssay (NCI)

// values below are reported TGI
System: U251 CNS
Test: NCI tumour cell line growth inhibition, 48 h

Before answering, review these 5 worked examples.
Query: Which TGI is listed for CCOC(=O)c1ccc(Nc2nc3ccc(C(F)(F)F)cc3nc2-c2ccccc2)cc1 ?
Result: > 100 µM

Query: Which TGI is listed for NNC(=O)CCCCCCCC(=O)O ?
Result: > 100 µM

Query: Which TGI is listed for Cc1ccc(C2=Nc3ccccc3NC(=O)C2)cc1 ?
Result: > 100 µM

Query: Which TGI is listed for CCOC(=O)NC(N(C)C(C(C)C)P(=O)(OCC)OCC)(C(F)(F)F)C(F)(F)F (stereo unspecified) ?
Result: > 100 µM

Query: Which TGI is listed for CCN(CC)C(=S)N/N=C(\C)c1ccccc1O ?
Result: 89 µM

Next:
Query: Which TGI is listed for Cc1ccc(N2C(=O)CC(=O)N(NC(=O)C(C)Oc3ccccc3C)C2=S)cc1 (stereo unspecified) ?
Result: > 100 µM

Query: Which TGI is listed for COc1ccc(C(=O)/C=C/c2cc(C(=O)c3cc(OC)c(OC)c(OC)c3)ccc2OC)cc1 ?
Result: > 100 µM

Query: Which TGI is listed for CCC(/C=C/c1ccccc1)=N\NC(=S)N/N=C(/C=C/c1ccccc1)CC ?
Result: > 100 µM

Query: Which TGI is listed for C=CCN=C1N=C(CC(=O)OCC)CS1 ?
Result: > 100 µM

Query: Which TGI is listed for CC(=O)NC1CCC(NC(=O)OC(C)(C)C)C(NC(=O)OC(C)(C)C)C1 (stereo unspecified) ?
Result: > 100 µM

* * *

System: UACC-257 melanoma
Assay: NCI tumour cell line growth inhibition, 48 h; in the data active means GI50 below about 0.43 µM; inactive means the rest
Reply using exactly one outcome from 1.0 for active, 0.0 for inactive

These recorded examples may help you get a feel for the data.
Query: Which outcome was entered for the molecule CO/N=C1/NC(=O)/C(=C/c2ccc3ncccc3c2)S1 in this test?
Result: 0.0

Query: Which outcome was entered for the molecule Cc1cc2c(C(N)=O)cccc2n1-c1nc2c(c(NCc3ccccc3)n1)CCCN2 in this test?
Result: 1.0

Query: Which outcome was entered for the molecule CCc1ccc(CCC(=O)Nc2ncc(Cc3ccccc3)s2)o1 in this test?
Result: 0.0

Query: Which outcome was entered for the molecule Cc1ccc(NS(=O)(=O)c2cc(C)ccc2C)cc1 in this test?
Result: 0.0

Query: Which outcome was entered for the molecule COc1ccc(C2=C(c3cn(C)c4ccccc34)C(=O)NC2=O)cc1OC in this test?
Result: 0.0

Now consider a different molecule.
Query: Which outcome was entered for the molecule Cc1ccc(NC2=C(Sc3ccc(Cl)cc3)C(=O)N(Cc3ccccc3)C2=O)cc1Cl in this test?
Result: 0.0

* * *

Test system: SW-620 colon
Assay: NCI tumour cell line growth inhibition, 48 h; in the data active means GI50 below about 0.43 µM; inactive means the rest
Reply using exactly one outcome from TRUE = active, FALSE = inactive

Query: Which outcome was entered for the molecule CN(/N=N/c1nc(OCc2ccccc2)c2[nH]cnc2n1)C(=O)N(C)/N=N/c1nc(OCc2ccccc2)c2[nH]cnc2n1 in this test?
Result: FALSE

Query: Which outcome was entered for the molecule O=C(c1cc(-c2cc3c(cc2C(=O)N2Cc4ccccc4C[C@H]2CN2CCOCC2)OCO3)n2c1CCCC2)N(c1ccccc1)c1ccc(O)cc1 in this test?
Result: FALSE

Query: Which outcome was entered for the molecule Cc1cc(-c2nc3ccc(O)cc3s2)ccc1N in this test?
Result: FALSE

Query: Which outcome was entered for the molecule CCCCC(=O)[O-].N.N.N.N.N.[Co+3].[O-][Cl+3]([O-])([O-])[O-] in this test?
Result: FALSE

Query: Which outcome was entered for the molecule O=c1[nH]nc2c3c(cccc13)NC(CN1Cc3ccccc3C1)=N2 in this test?
Result: FALSE

Query: Which outcome was entered for the molecule O=C(Nc1ccncc1)C(=O)c1cn(S(=O)(=O)c2ccccc2F)c2ccccc12 in this test?
Result: FALSE

Now consider a different molecule.
Query: Which outcome was entered for the molecule O=C(CNC(=O)c1cccc2ccccc12)Nc1ccccc1Oc1ccccc1 in this test?
Result: TRUE

* * *

Test system: HCT-116 colon
Assay: NCI tumour cell line growth inhibition, 48 h
// values below are reported GI50

Before answering, review these 3 worked examples.
Query: Which GI50 is listed for CC1(C)N=C(N)N=C(N)N1c1cccc(CCCCc2ccc(S(=O)(=O)F)cc2Cl)c1 ?
Result: 1060 nM

Query: Which GI50 is listed for C#CC[C@H](c1nc2cc(Cl)ccc2c(=O)n1Nc1ccccc1)N(CCCN)C(=O)c1cccc(Cl)c1F ?
Result: 40.3 nM

Query: Which GI50 is listed for O=C(N/N=C/c1ccc(O)cc1O)c1ccc(Nc2ccnc(C(F)(F)F)c2)cc1 ?
Result: 39100 nM

Next:
Query: Which GI50 is listed for CCc1ccc(CCC(=O)Nc2ncc(Cc3ccccc3)s2)o1 ?
Result: 1050 nM

Query: Which GI50 is listed for CN(C)CC#Cc1cccc(C(=O)c2cnn(-c3ccc(F)cc3)c2N)c1 ?
Result: > 25000 nM

* * *

Tested on: RPMI-8226 leukemia
Assay: NCI tumour cell line growth inhibition, 48 h
measurement_name: TGI

Before answering, review these 7 worked examples.
Query: API: value(readout= TGI, system= RPMI-8226 leukemia, query= CNC=O )
Result: > 10000 µM

Query: API: value(readout= TGI, system= RPMI-8226 leukemia, query= Cc1ccc(NC2=C(Sc3ccc(Cl)cc3)C(=O)N(Cc3ccccc3)C2=O)cc1Cl )
Result: 40.8 µM

Query: API: value(readout= TGI, system= RPMI-8226 leukemia, query= CCOC(=O)C#Cc1ccc(C#CC(=O)OCC)cc1 )
Result: > 25.3 µM

Query: API: value(readout= TGI, system= RPMI-8226 leukemia, query= c1ccc2c(Cc3c[nH]c4ccccc34)c[nH]c2c1 )
Result: 68.8 µM

Query: API: value(readout= TGI, system= RPMI-8226 leukemia, query= C=CC1(CBr)CCC(C(C)(C)Br)O1 (stereo not drawn) )
Result: 6.11 µM

Query: API: value(readout= TGI, system= RPMI-8226 leukemia, query= C=CCN1C(=O)/C(=C/c2cccs2)N=C1SC1OC(COC(=O)c2ccccc2)C(OC(=O)c2ccccc2)C1OC(=O)c1ccccc1 (stereo not drawn) )
Result: > 100 µM

Query: API: value(readout= TGI, system= RPMI-8226 leukemia, query= C=C(Br)C(Cl)(CBr)CCC(Br)C(C)(C)Cl (stereo not drawn) )
Result: > 10 µM

Next:
Query: API: value(readout= TGI, system= RPMI-8226 leukemia, query= CCCN(CCC)C(=O)Cc1c2n(c3ccccc13)Cc1ccccc1-2 )
Result: > 100 µM

* * *

// values below are reported GI50
System: UACC-62 melanoma
Experiment: NCI tumour cell line growth inhibition, 48 h

Before answering, review these 3 worked examples.
Query: Which GI50 is listed for N#CSCC1CC(O)(c2ccccc2)C(c2ccccc2)C(c2ccc(F)cc2)O1 (centres undefined) ?
Result: 1.9 µM

Query: Which GI50 is listed for CN(C)CC#Cc1cccc(C(=O)c2cnn(-c3ccc(F)cc3)c2N)c1 ?
Result: > 25 µM

Query: Which GI50 is listed for Cc1nn2c(/C=C3/C(=O)Nc4ccccc43)c(-c3ccc(Cl)cc3)nc2s1 ?
Result: 10.2 µM

Shifting focus to the molecule that follows.
Query: Which GI50 is listed for O=C(Nc1ccc(Nc2ccncc2)cc1)c1ccc(Nc2ccnc3ccc([N+](=O)[O-])cc23)cc1 ?
Result: 68.1 µM

* * *

// values below are reported TGI
Test system: OVCAR-5 ovarian
Test: NCI tumour cell line growth inhibition, 48 h

Query: Which TGI is listed for Cn1c(=O)c2[nH]c(COCc3nc4c([nH]3)c(=O)n(C)c(=O)n4C)nc2n(C)c1=O ?
Result: > 100 µM

Query: Which TGI is listed for C#CCSc1cnc2ccccc2c1Sc1c[nH]c2ccccc2c1=O ?
Result: > 100 µM

Query: Which TGI is listed for O/N=C1\CC2(N3CCOCC3)CCC1(Cc1ccccc1)CC2 ?
Result: > 100 µM

Query: Which TGI is listed for C/C=C/OC1C(C2COC(C)(C)O2)OC2OC(C)(C)OC21 (centres undefined) ?
Result: > 100 µM

Query: Which TGI is listed for N#Cc1nsnc1-c1nc(-c2nsnc2C#N)nc(-c2nsnc2C#N)n1 ?
Result: > 100 µM

Next:
Query: Which TGI is listed for CC1(C)N=C(N)N=C(N)N1c1cccc(CCCCc2ccc(S(=O)(=O)F)cc2Cl)c1 ?
Result: > 100 µM

Query: Which TGI is listed for FC(F)(F)C1(C(F)(F)F)OC(Cl)(Cl)C(Cl)(Cl)O1 ?
Result: > 10 µM

Query: Which TGI is listed for CSc1nc(-c2cc3c(c(SC)n2)CCC3)cc2c1CCC2 ?
Result: > 100 µM

Query: Which TGI is listed for C=C(Br)C(Cl)(CBr)CCC(Br)C(C)(C)Cl (centres undefined) ?
Result: > 10 µM
